Tested on: hTERT-HME1
Measurement Notes: Cell proliferation (CellTiter-Glo, 72 hour), hTERT-HME1
Format: cell-based
Measurement Context: breast cancer cell lines table, read-out: hTERT-HME1 inhibition of proliferation (IC50)
pIC50: −log10 of the molar value.
The entries below are paired with their reported pIC50.
Test Readout: pIC50

Compound	Test Readout	Endpoint Result
CN(C)C/C=C/C(=O)Nc1ccc(C(=O)N[C@H]2CCC[C@H](Nc3ncc(Cl)c(-c4c[nH]c5ccccc45)n3)C2)cc1	pIC50	5.30 to 6.30
CN(C)C/C=C/C(=O)Nc1ccc(C(=O)N[C@H]2CCC[C@@H](Nc3ncc(Cl)c(-c4c[nH]c5ccccc45)n3)C2)cc1	pIC50	> 6.30
CN1CC[C@H](c2c(O)cc(O)c3c(=O)cc(-c4ccccc4Cl)oc23)[C@H](O)C1 [Flavopiridol, flavopiridol, reference compound]	pIC50	> 6.30
CC(C)[C@]12O[C@H]1[C@@H]1O[C@]13[C@]1(O[C@H]1C[C@H]1C4=C(CC[C@@]13C)C(=O)OC4)[C@@H]2O [Triptolide, triptolide, reference compound]	pIC50	> 6.30
